# system under test: UniProtKB O95069
# Sequence (O95069 1-426): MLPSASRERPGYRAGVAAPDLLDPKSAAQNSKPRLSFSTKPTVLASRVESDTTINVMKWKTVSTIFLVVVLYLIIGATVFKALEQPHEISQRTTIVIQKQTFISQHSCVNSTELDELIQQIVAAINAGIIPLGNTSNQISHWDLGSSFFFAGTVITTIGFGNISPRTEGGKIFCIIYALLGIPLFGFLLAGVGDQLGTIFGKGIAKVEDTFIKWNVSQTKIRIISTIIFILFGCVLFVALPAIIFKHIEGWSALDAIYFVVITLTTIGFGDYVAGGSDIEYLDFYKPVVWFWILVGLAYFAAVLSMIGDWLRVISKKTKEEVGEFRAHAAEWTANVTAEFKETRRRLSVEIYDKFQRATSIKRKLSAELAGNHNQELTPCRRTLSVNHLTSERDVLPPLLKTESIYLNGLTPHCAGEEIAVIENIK
# test details: two-electrode voltage clamp, Xenopus oocytes
# Format: cell-based
pEC50: −log10 of the molar value.
assay metric: pEC50

1) CC(C)[C@@H]1CC[C@@H](C)C[C@H]1O | 2.42
2) Cc1ccc(C(C)C)cc1O | 3.70
3) Cc1ccc(C(C)C)c(O)c1 | 3.37
